B1: PLAGL1 (parent)
chain: EKPPSGTKEKKHQCDHCERCFYTR

Variants of: B1
Assay: protein stability index of a GFP-peptide fusion (GPS, HEK-293T) (PSI 1-6); higher = more stable;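 also: lentivirally expressed fusions sorted by FACS into six bins by GFP to DsRed ratio, PSI derived from sequencing read proportions per bin multiplied by bin number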
Settings: c terminus: a fixed tail appended
This section presents variants with their documented protein stability index values.

mutation label: Q13T
protein stability index: 3.29

mutation label: D15I
protein stability index: 2.55

mutation label: G6S
protein stability index: 3.27

mutation label: C20K
protein stability index: 3.58

mutation label: C14L
protein stability index: 4.19

mutation label: T7V
protein stability index: 4.06

mutation label: E1A
protein stability index: 3.43

mutation label: S5D
protein stability index: 4.16

mutation label: K11A
protein stability index: 3.73

mutation label: E18L
protein stability index: 2.87

mutation label: Y22W
protein stability index: 3.18

mutation label: Q13N
protein stability index: 3.74

mutation label: E1T
protein stability index: 3.36

mutation label: C20H
protein stability index: 2.58

mutation label: Y22H
protein stability index: 4.13

mutation label: K8N
protein stability index: 3.77

mutation label: E1C
protein stability index: 3.21

mutation label: C17Y
protein stability index: 3.15

mutation label: T23G
protein stability index: 4.1

mutation label: C20T
protein stability index: 3.04

mutation label: D15K
protein stability index: 3.33

mutation label: C17T
protein stability index: 3.48
